experiment: inhibition of PEG-3 promoter activity – cell-based, HeLa, luciferase luminescence, primary screen (AID 588405); settings: HeLa PEG-Prom luciferase reporter, overnight, at 20 µM, hits give high values
The whole screen tested about 360,000 compounds, of which about 6,200 (1.7%) were called active. The full list was thinned out, with actives kept by preference.
Reported inhibition is given for each of the following molecules.
metric.name: inhibition (%)

C=C1C(=O)[C@]23C[C@H]1CCC2[C@@]1(C)C(C[C@@H]3O)[C@](C)(C(=O)O)CC[C@@H]1O (some centres undefined) :: 3.91
COc1cccc2c1C(=O)c1c(O)c3c(c(O)c1C2=O)CC(O)(C(C)=NNC(=O)c1ccc(Cl)c(Cl)c1)CC3OC1CC(N)C(O)C(C)O1 (centres undefined) :: 98.3
CC(C)CCNC(=O)c1[nH]c(C(F)(F)F)nc1-c1ccccc1 :: 11.4
COc1ccc(C(=O)/C=C/Nc2ccccn2)cc1 :: 63
CCCCC(=O)N(C)c1c(CC)nc2c(OCc3ccc(Cl)cc3Cl)cccn12 :: 39
Cc1cc(N/C=C\C(=O)c2ccc(Cl)c(Cl)c2)no1 :: -233
Cc1onc(NC(=O)c2ccc([N+](=O)[O-])o2)c1Br :: 14.7
Fc1cccc(Cc2c(-c3cccc(Cl)c3)nc3ccc(Br)cn23)c1 :: -153
O=C(c1cc(C2CCCCN2S(=O)(=O)c2ccccc2)on1)N1CCOCC1 (centres undefined) :: 1.6

---

test: inhibition of PEG-3 promoter activity – cell-based, HeLa, luciferase luminescence, primary screen (AID 588405); conditions: HeLa PEG-Prom luciferase reporter, overnight, at 20 µM
The whole screen tested about 360,000 compounds, of which about 6,200 (1.7%) were called active.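 The calls were made as follows: active = inhibition of at least 50% at 20 µM; inactive = the rest.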 The entries come from a sample that favours actives as a whole.
Outcome codes: YES for active, NO for inactive

COc1ccc(-c2cc3nc(NCCOc4ccccc4)ccn3n2)cc1 :: NO
C=CC[C@@H](CC(=O)N[C@@H](CO)Cc1ccccc1)C(=O)N[C@H](COC(=O)[C@H](CC=C)CC(=O)OC(C)(C)C)Cc1ccccc1 :: YES
CCOC(=O)c1ccn(S(=O)(=O)c2ccc(C)cc2)c1-c1ccccc1 :: NO
O=S1(=O)CCN(C2CCCCCCCCCCC2)CC1 :: NO

---

assay: inhibition of PEG-3 promoter activity – cell-based, HeLa, luciferase luminescence, primary screen (AID 588405); conditions: HeLa PEG-Prom luciferase reporter, overnight, at 20 µM, hits give high values
Hit rate of the full screen: of about 360,000 compounds, about 6,200 (1.7%) were called active. Only a selection was taken, and actives are over-represented in it overall.
Would you mind labelling by inhibition? At or over 60% is criterion met, under is criterion not met.

O=C(/C=C/c1ccc([N+](=O)[O-])o1)NNC(=O)c1ccc(F)cc1 :: criterion met
Cc1ccc2nc(-c3ccco3)c(Cc3cccc(Cl)c3)n2c1 :: criterion not met
O=C(Nc1ccc(F)cc1)C1CCN(C(=O)c2ccc([N+](=O)[O-])cc2)CC1 :: criterion not met
CN(C)S(=O)(=O)c1cccc(C(=O)OCC(=O)N2CCCC2=O)c1 :: criterion not met
Nc1ccccc1SC(C[N+](=O)[O-])c1ccccc1 (configuration not stated) :: criterion met
CN1CCN(CCCNC(=O)c2ccc(/C=C3\Oc4ccccc4N(Cc4ccc(Cl)cc4)C3=O)cc2)CC1 :: criterion met
CCCNC(=O)C1(C)CCN1C(=O)C1(c2ccccc2)CC1 (configuration not stated) :: criterion not met

---

inhibition values by entry
experiment: inhibition of PEG-3 promoter activity – cell-based, HeLa, luciferase luminescence, primary screen (AID 588405); conditions: HeLa PEG-Prom luciferase reporter, overnight, at 20 µM, hits give high values
About 6,200 (1.7%) of roughly 360,000 compounds were called active. The sample as a whole holds a higher share of actives than the screen did.
metric.name: inhibition

COCCn1c(=S)[nH]c2cc(C(=O)NCCc3ccc(OC)c(OC)c3)ccc2c1=O :: 17.6% (inactive)
CC(=O)Oc1ccc(Cn2c(C)c(C(=O)NCc3ccc(C#N)cc3)sc2=O)cc1 :: 9.61% (inactive)
Clc1ccc(-c2cc(-c3ccccn3)on2)c(Cl)c1 :: -90.8% (inactive)

---

Quick reference: inhibition of the listed items.
assay: inhibition of PEG-3 promoter activity – cell-based, HeLa, luciferase luminescence, primary screen (AID 588405); conditions: HeLa PEG-Prom luciferase reporter, overnight, at 20 µM, hits give high values
Hit rate of the full screen: of about 360,000 compounds, about 6,200 (1.7%) were called active. The full list was thinned out, with actives kept by preference.
metric.name: inhibition (%)

COc1ccccc1Nc1ncnc2c1oc1ccccc12 :: -388
CC(=O)OC[C@@H]1CN(Cc2ccccc2)C[C@H](n2cnc3c(NCc4ccco4)ncnc32)O1 :: 4.43
CC12CCC(C(=O)N(NC(=O)c3ccccc3O)C1=O)C2(C)C (centres undefined) :: 53.1
COc1ccc(OC)c(NC(=O)CN(C)CCOc2ccc(Br)cc2)c1 :: 7.53
CCCOc1ccc(C(=O)C(CCC(CNCC)C(=O)c2ccc(OCCC)cc2)CNCC)cc1 (centres undefined) :: 116
O=C(NC(c1ccc(-c2ccccc2)cc1)c1cnccn1)C1CCN(CCOc2ccc(Cl)cc2Cl)CC1 (centres undefined) :: 37.4
CCN1CCCC1CNC(=O)c1ccc2c(c1)NC(=O)/C(=C\c1ccccc1F)S2 (centres undefined) :: 56.9
Cc1ccccc1OCCC(=O)OCC(=O)NC(C)c1ccccc1 (centres undefined) :: -0.76
CC(C)OCCCNC(=O)CN1C(=O)/C(=C/c2ccccc2F)Oc2ccccc21 :: 4.52
CC(C)(C)OC(=O)N1CCN(C(=O)c2[nH]c(C(F)(F)F)nc2-c2ccccc2)CC1 :: 5.18
O=S(=O)(c1ccccc1)N1CCC(c2ccccc2)CC1 :: 6.2
CCCCC(=O)N(C)c1c(CC)nc2c(OCc3ccc(S(C)(=O)=O)cc3)cccn12 :: -0.29
COC(=O)c1ccc(OCC(=O)NC(C)(C)C)cc1 :: -42.5
O=C1/C(=C/c2ccc(F)cc2)SC(=S)N1CCCC(=O)N1CCCCC1CCO (centres undefined) :: 58.3
O=C(/C=C/Sc1ncn[nH]1)c1ccc(Cl)cc1 :: 100
OC(c1ccc(Cl)c(F)c1)c1ncc(-c2ccccc2Cl)[nH]1 (centres undefined) :: 17.5
Cc1ccc(O)c(/C=N/NC(=O)COc2ccc3c(C)cc(=O)oc3c2)c1 :: 66.5
COC(=O)c1ccc(COc2ccc(/C=C/C(=O)c3ccc(OC)c(CSCC(=O)O)c3)cc2OC)cc1 :: -5.11
Cc1ccc(C(NC(=O)C2CCN(CCOc3ccc(Cl)cc3Cl)CC2)c2ccccn2)cc1 (centres undefined) :: 106
CC(C)c1cc(C(=O)NC2CCCCCC2)c2ccccc2n1 :: -6.57
O=C(NCCCN1CCCCC1)c1ccc2c(c1)NC(=O)C(N1CCOCC1)S2 (centres undefined) :: -8.33
CCCC1=Nc2cc(C(=O)NCCN3CCCC3)ccc2Sc2ccccc21 :: 16.7
CN(C(=O)CN1CCN(c2cc(-c3ccc(OCc4ccccc4)cc3)ncn2)CC1)c1ccccc1 :: -2.84
CN(Cc1ccccc1F)C(=O)C(Cc1ccccc1)NC(=O)c1ccccc1 (centres undefined) :: 53.2

---

test: inhibition of PEG-3 promoter activity – cell-based, HeLa, luciferase luminescence, primary screen (AID 588405); details: HeLa PEG-Prom luciferase reporter, overnight, at 20 µM
Among all 360,000 compounds or so, about 6,200 (1.7%) were called active.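 How the source made its calls: active means inhibition of at least 50% at 20 µM; inactive means the rest.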 Only a selection was taken, and actives are over-represented in it overall.
Outcome codes: Yes for active, No for inactive

O=C(NCC1CCN(Cc2ccccc2Cl)CC1)Nc1cccc(Cl)c1 :: No
NC(=O)COC(=O)c1cc(S(=O)(=O)N2CCN(c3ccccc3)CC2)ccc1Cl :: No
CN(C)CCCOc1ccc(-c2ccc3nccn3c2)cn1 :: No
CCn1cc(CN2CCC(C(=O)Nc3cccc(-c4cccc(Cl)c4)c3)CC2)cn1 :: Yes
COCC(C)n1c(C)cc(C(=O)COc2ccc(C)nc2[N+](=O)[O-])c1C (stereo not given) :: No
O=C(Nc1cccc(-c2cccc(Cl)c2)c1)C1CCN(C2CCC2)CC1 :: Yes
CCc1ccc(CNC(=O)C2CCN(c3nnc(C)c4c(C)n(-c5ccc(C)cc5)nc34)CC2)cc1 :: Yes
COc1cncc(-c2cnc3sc(NCCc4ccccn4)nn23)c1 :: No
O=C(/C=C/[C@H]1O[C@@H](n2ccc(=O)[nH]c2=O)[C@H](O)[C@@H]1O)NCc1ccccn1 :: No
O=C(OC12CC3CC(CC(C3)C1)C2)c1ccc(NCc2cc(O)ccc2O)cc1 :: Yes
CN(C(=O)CCN1C(=O)/C(=C/c2ccccc2F)SC1=S)C1CCS(=O)(=O)C1 (stereo not given) :: No
CC1(C)C2CCC1(C)C(OC(=O)c1ccc(O)cc1)C2 (stereo not given) :: No
CC(C)(C)OC(=O)C[C@@H]1C/C=C\C[C@@H](CC(=O)N[C@H](CO)Cc2ccccc2)C(=O)NC[C@@H](c2ccccc2)OC1=O :: No
CC(C)(C)OC(=O)C[C@H]1C/C=C\C[C@@H](CC(=O)N[C@H](CO)Cc2ccccc2)C(=O)NC[C@@H](c2ccccc2)OC1=O :: No
CC(=O)Nc1cccc(-c2ccnc3c2CC(C)(C(=O)NCc2ccccc2)O3)c1 (stereo not given) :: No
CCCC/C=C/c1cccc2nncn12 :: No
COc1ccc(-c2coc3c(C(=O)NC(C)C)cccc23)c(C)c1 :: No
CC(=O)N(CN1C(=O)C2CC=CCC2C1=O)c1cccc(Cl)c1 (stereo not given) :: No
Cc1nc2ccccc2c2oc(C(=O)NCCCN3CCC(C)CC3)cc12 :: No
CC(C)CC(N=C1NC(C)(C)Cc2ccccc21)C(=O)O (stereo not given) :: No
COC(=O)c1cc(C(=O)N(Cc2ccccc2)c2ccccn2)cc([N+](=O)[O-])c1 :: No
O=C(CSc1nc(=O)n2ccccc2n1)Nc1ccc2c(c1)OCCO2 :: No
O=C(c1ccc(F)cc1)n1c(=S)nc2ccccn21 :: No
CCCc1nc2c3ccccc3ccn2c1Cc1ccccc1C(F)(F)F :: No
Nc1ncnc2c1ncn2[C@@H]1O[C@H](C(=O)N2CCCN(Cc3ccccc3F)CC2)[C@@H](O)[C@H]1O :: No
Cc1cc(C(=O)COC(=O)CNC(=O)c2ccc(F)cc2)c(C)n1Cc1ccco1 :: No
O=C(CCl)N(Cc1cccc([N+](=O)[O-])c1)c1cccc(Cl)c1 :: Yes
Cc1cccc(-c2cnc(C(O)c3ccc4ccccc4c3)[nH]2)c1 (stereo not given) :: No
O=C(Oc1ccc(-c2nc(-c3ccccn3)no2)cc1)c1ccccc1 :: Yes
CCN1/C(=C\c2ccc3ccccc3[n+]2CC)Sc2cc(C)ccc21 :: Yes
